# measured-target: PKC delta kinase (Homo sapiens, UniProt Q05655)
# Sequence (Q05655 whole entry): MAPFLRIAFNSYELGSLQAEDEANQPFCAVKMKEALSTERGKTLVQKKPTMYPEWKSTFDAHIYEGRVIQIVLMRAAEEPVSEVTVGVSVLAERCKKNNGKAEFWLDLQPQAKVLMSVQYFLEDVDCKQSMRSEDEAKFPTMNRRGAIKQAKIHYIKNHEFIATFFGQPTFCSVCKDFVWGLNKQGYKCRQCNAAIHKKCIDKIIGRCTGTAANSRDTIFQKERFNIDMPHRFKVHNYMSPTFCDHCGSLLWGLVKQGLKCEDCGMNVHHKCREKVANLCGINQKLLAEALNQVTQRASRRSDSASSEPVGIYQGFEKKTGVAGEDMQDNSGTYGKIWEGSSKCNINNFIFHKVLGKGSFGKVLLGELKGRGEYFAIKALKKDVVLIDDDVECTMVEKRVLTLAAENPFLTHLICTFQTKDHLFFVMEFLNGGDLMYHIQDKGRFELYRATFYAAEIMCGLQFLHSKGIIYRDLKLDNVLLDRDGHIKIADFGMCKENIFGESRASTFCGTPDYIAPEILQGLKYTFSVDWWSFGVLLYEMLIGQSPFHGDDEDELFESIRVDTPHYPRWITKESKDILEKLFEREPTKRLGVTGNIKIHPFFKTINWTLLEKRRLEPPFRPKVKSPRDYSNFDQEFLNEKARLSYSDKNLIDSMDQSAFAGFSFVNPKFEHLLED
# protocol: PKC Delta (coupled enzyme assay)
# Format: biochemical
# run-parameters: 150 μM ATP, 46 nM PKC delta; read-out: Ki PKC delta
pKi: −log10 of the molar value.
Listed here: items and their measured pKi.

Need pKi of CCCC1CN(c2ccc(C(F)(F)F)c(C(=O)c3cccnc3N)n2)CCCN1 (centres unmarked) , thanks. 6.30 to 7.30

Need pKi of Cc1ccc(-c2ccc(N3CCNC(c4ccccc4)C3)nc2C(=O)c2cccnc2N)o1 (centres unmarked) , thanks. 6.30 to 7.30

Need pKi of CC(C)C(O)C1CN(c2ccc(C(F)(F)F)c(C(=O)c3cccnc3N)n2)CCN1 (centres unmarked) , thanks. 6.30 to 7.30

====

A set of compounds tested on PKC alpha kinase (Homo sapiens, UniProt P17252), with measured Ki:

{"compound": "Nc1ncccc1C(=O)c1nc(N2CCNC(C(F)(F)F)C2)ccc1C(F)(F)F (centres unmarked)", "measured-target": "PKC alpha kinase (Homo sapiens, UniProt P17252)", "Ki": "> 2800 nM"}
{"compound": "Nc1ncccc1C(=O)c1nc(N2CCNC(c3cccc(Cl)c3)C2)ccc1C(F)(F)F (centres unmarked)", "measured-target": "PKC alpha kinase (Homo sapiens, UniProt P17252)", "Ki": "< 50 nM"}
{"compound": "NCC1CCCC(CNc2ccc(C(F)(F)F)c(C(=O)c3cccnc3N)n2)C1 (centres unmarked)", "measured-target": "PKC alpha kinase (Homo sapiens, UniProt P17252)", "Ki": "> 2800 nM"}
{"compound": "C=C(F)c1ccc(N2CCN[C@@H](CC(C)C)C2)nc1C(=O)c1cccnc1N", "measured-target": "PKC alpha kinase (Homo sapiens, UniProt P17252)", "Ki": "< 50 nM"}
{"compound": "CC(C)C[C@H]1CN(c2ccc(-c3ccccc3F)c(C(=O)c3cccnc3N)n2)CCN1", "measured-target": "PKC alpha kinase (Homo sapiens, UniProt P17252)", "Ki": "< 50 nM"}
{"compound": "Nc1ncc(Cl)cc1C(=O)c1nc(N2CCNCC2)ccc1C(F)(F)F", "measured-target": "PKC alpha kinase (Homo sapiens, UniProt P17252)", "Ki": "< 50 nM"}
{"compound": "CC(C)(F)CC1CN(c2ccc(C(F)(F)F)c(C(=O)c3cccnc3N)n2)CCN1 (centres unmarked)", "measured-target": "PKC alpha kinase (Homo sapiens, UniProt P17252)", "Ki": "500 to 2800 nM"}
{"compound": "CC(C)C[C@H]1CN(c2ccc(C(F)(F)F)c(C(=O)c3cccnc3N)n2)C[C@@H](C)N1", "measured-target": "PKC alpha kinase (Homo sapiens, UniProt P17252)", "Ki": "< 50 nM"}

Need Ki of "C=Cc1ccc(N2CCN[C@H](c3ccccc3)C2)nc1C(=O)c1cccnc1N" , thanks. 500 to 2800 nM

Need Ki of CC(C)(C)C1CN(c2ccc(C(F)(F)F)c(C(=O)c3cccnc3N)n2)CCN1 (centres unmarked) , thanks. > 2800 nM

====

# measured-target: PKC delta kinase (Homo sapiens)
# protocol: PKC Delta (coupled enzyme assay)
# Assay type: biochemical
assay-metric: Ki

Need Ki of "CN1CCCN(c2cccc(C(=O)c3cccnc3N)n2)CC1" , thanks. 500 to 2800 nM
